Experiment: adipocyte viability effects, profiling panel, cell-based, 3T3-L1 adipocytes, calcein-AM fluorescence, 48 h, basal (AID 1163); further: test concentration not given here
Settings: 3T3-L1 adipocytes viability, higher = more signal

smiles.entry	z-score
CC(C)[C@@H](OCc1ccccc1)[C@H](C)C=NO[C@H](C)c1cn([C@H](CO)Cc2ccccc2)nn1	0.315
COC(=O)CC=C[C@H](C)[C@@H](OCc1ccccc1Br)C(C)C	0.0901
CC(CCC(=O)OC[C@H]1O[C@H](C#Cc2ccccc2)C=C[C@@H]1Oc1ccc(C)cc1)=NOC[C@@H](O)[C@H]1O[C@@H]2OC(C)(C)O[C@@H]2[C@H]1O	-0.0958
CCN1C(=O)[C@H]2[C@H]3[C@H](O)[C@H](O)CC(=NOC[C@@H](C)[C@H](OCc4ccccc4)C(C)C)[C@@H]3CC[C@H]2C1=O	0.387
C=CCOC(=O)[C@H]1[C@@H]2C(=O)O[C@@H](c3ccccc3)[C@@H](c3ccccc3)N2[C@@H](c2ccc(OCCOC(=O)[C@H]3C[C@H]4C(=O)N5CCC[C@H]5C(=O)N4[C@H]3c3cccc(OCCO)c3)cc2)[C@]12C(=O)Nc1ccc(I)cc12	0.199
COc1ccc([Si](C)(C)[C@H]2[C@H](CCO)O[C@@]3(C(=O)N(Cc4cccc(NC(=O)[C@H](C)O)c4)c4ccccc43)[C@@H]2C)cc1	-0.401
